Experiment: HTChem stab assay (chemical stability in buffer pH2, pH4 and pH7 vs DMSO reference)
Format: physicochemical
Details: 72 h, 50 µM
measurementType: Chemical stability data, Vehicle DMSO (%)
Numbers only; they are read as %.

As a guide, the following entries are already answered.
- compound: "CCc1nc2ncc(C)cn2c1C(=O)NCc1ccc(-c2nc3n(n2)CCC(C(F)(F)F)C3)cc1 (centres unmarked) [Compound 1ab]"
  reported: 100
- compound: "CCc1nc2nc(C)c(C)cn2c1C(=O)NCc1ccc(-c2nc3n(n2)CCC(C(F)(F)F)C3)cc1 (centres unmarked)"
  reported: 100
- compound: "CCc1nc2ncc(C)cn2c1C(=O)NCc1ccc(-c2nc3n(n2)CCC(C)C3)cc1 (centres unmarked)"
  reported: 98

q: Quick one: Chemical stability data, Vehicle DMSO of CCc1nc2ncc(C)cn2c1C(=O)NCc1ccc(-c2cc3n(n2)CCC(C(F)(F)F)C3)cc1 (centres unmarked) [Compound 20ab] ?
a: 100

q: What do you get for CCc1nc2ncc(Cl)cn2c1C(=O)NCc1ccc(-c2nc3n(n2)CCC(C(F)(F)F)C3)cc1 (single isomer, unassigned) [Compound 10a] ?
a: 100

q: What do you get for CCc1nc2nc(N)c(C)cn2c1C(=O)NCc1ccc(-c2nc3n(n2)CCC(C(F)(F)F)C3)cc1 (centres unmarked) [Compound 12ab] ?
a: 99

q: What do you get for Cc1cnc2nc(C3CC3)c(C(=O)NCc3ccc(-c4nc5n(n4)CCC(C(F)(F)F)C5)cc3)n2c1 (centres unmarked) ?
a: 100

q: What do you get for CCc1nc2ncc(C)cn2c1C(=O)NCc1ccc(-c2nc3n(n2)CCC(C(F)(F)F)C3)c(F)c1 (centres unmarked) [Compound 22ab] ?
a: 98

q: What do you get for CCc1nc2ncc(CN)cn2c1C(=O)NCc1ccc(-c2nc3n(n2)CCC(C(F)(F)F)C3)cc1 (centres unmarked) [Compound 16ab] ?
a: 77

q: What do you get for CCc1nc2ncc(Cl)cn2c1C(=O)NCc1ccc(-c2nc3n(n2)CCC(C(F)(F)F)C3)cc1 (centres unmarked) [Compound 10ab] ?
a: 90

q: What do you get for CCc1nc2nc(F)ccn2c1C(=O)NCc1ccc(-c2cn3c(n2)CC(C)CC3)cc1 (centres unmarked) [Compound 35ab] ?
a: 100

q: What do you get for CCc1nc2ncc(C)cn2c1C(=O)NCc1ccc(-c2nc3n(n2)CCC(C(F)F)C3)cc1 (centres unmarked) [Compound 25ab] ?
a: 100
